Target entity: POL/UL8 interaction (Human herpesvirus 1, UniProt P04293)
Construct: made in house; host or cells: Spodoptera frugiperda (Sf) cells infected with recombinant baculoviruses AcUL30 and AcUL8
Sequence (P04293 whole entry): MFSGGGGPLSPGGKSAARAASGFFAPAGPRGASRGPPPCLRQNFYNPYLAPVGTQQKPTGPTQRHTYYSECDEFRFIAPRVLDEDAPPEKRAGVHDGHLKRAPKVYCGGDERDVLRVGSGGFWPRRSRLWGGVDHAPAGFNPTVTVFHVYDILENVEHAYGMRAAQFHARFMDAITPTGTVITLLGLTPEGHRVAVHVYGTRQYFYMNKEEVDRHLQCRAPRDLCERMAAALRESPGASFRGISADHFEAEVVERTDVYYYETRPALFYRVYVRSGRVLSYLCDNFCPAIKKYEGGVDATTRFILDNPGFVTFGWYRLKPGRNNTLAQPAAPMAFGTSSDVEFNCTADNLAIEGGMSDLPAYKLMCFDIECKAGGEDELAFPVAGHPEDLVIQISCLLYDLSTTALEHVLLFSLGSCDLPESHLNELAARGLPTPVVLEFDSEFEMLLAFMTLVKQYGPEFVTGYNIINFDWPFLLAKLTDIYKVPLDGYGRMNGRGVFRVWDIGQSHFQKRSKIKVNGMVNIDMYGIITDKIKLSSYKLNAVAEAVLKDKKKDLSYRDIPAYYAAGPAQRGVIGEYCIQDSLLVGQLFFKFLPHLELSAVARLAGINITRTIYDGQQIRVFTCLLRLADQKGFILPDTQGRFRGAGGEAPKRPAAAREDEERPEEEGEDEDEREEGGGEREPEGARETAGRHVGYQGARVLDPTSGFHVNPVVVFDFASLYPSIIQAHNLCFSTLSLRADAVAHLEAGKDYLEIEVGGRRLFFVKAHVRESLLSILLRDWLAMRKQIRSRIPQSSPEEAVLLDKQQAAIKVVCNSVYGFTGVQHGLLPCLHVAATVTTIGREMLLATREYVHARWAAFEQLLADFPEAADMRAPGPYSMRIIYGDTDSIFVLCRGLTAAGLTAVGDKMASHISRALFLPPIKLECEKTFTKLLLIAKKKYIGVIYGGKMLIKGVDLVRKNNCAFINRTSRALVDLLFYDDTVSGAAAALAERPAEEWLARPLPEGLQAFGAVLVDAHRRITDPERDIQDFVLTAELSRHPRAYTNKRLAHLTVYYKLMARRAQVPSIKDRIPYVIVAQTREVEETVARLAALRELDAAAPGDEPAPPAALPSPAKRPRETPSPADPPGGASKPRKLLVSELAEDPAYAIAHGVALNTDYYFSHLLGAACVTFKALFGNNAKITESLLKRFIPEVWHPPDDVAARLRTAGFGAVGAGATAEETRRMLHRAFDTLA
Assay: biochemical
Assay type: binding, HSV-1
Setup conditions: IC50 value for inhibition of the POL/UL8 interaction, FIG. 8; peptide pre-incubated with POL for 15 min
No end group written: not given here.

{"Sequence code": "IELVFTGVLAGVWGEGGKFV [Peptide 7]", "IC50": "~1000 nM"}

---

Target entity: POL/UL8 interaction (Human herpesvirus 1)
Construct: made in house; host or cells: Spodoptera frugiperda (Sf) cells infected with recombinant baculoviruses AcUL30 and AcUL8
Assay: biochemical
Format: binding, HSV-1
Setup conditions: IC50 value for inhibition of the POL/UL8 interaction, FIG. 8; no pre-incubation, peptide added a few seconds after POL
pIC50: −log10 of the molar value. No end group written: not given here.
Measured quantity: pIC50

{"Sequence code": "IELVFTGVLAGVWGEGGKFV [Peptide 7]", "Result": "~6.00"}
